Kindly state koff for each of the entries shown.
# target-under-test: T1, cyno IL-33 N-His (cynomolgus monkey)
# T1 chain: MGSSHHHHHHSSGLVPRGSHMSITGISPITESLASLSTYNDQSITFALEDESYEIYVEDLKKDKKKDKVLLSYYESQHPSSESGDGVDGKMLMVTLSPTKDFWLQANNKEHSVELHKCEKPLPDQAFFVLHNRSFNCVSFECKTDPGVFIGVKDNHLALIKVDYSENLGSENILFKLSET
# test-description: SPR Biacore T200, 37 C
Entry rule: numbers only, all in s⁻¹.

Req: Consider the binder shown here: H4H9675P (antibody, V domains shown) VH: EVQLVESGGNLEQPGGSLRLSCTASGFTFSRSAMNWVRRAPGKGLEWVSGISGSGGRTYYADSVKGRFTISRDNSKNTLYLQMNSLSAEDTAAYYCAKDSYTTSWYGGMDVWGHGTTVTVSS VL: DIQMTQSPSSVSASVGDRVTITCRASQGIFSWLAWYQQKPGKAPKLLIYAASSLQSGVPSRFSGSGSGTDFTLTISSLQPEDFAIYYCQQANSVPITFGQGTRLEIK What is its recorded koff?
Resp: 0.00505

Req: Recorded koff of 10C12.38.H6.87Y.58I IgG4 (antibody, V domains shown, also called anti-IL33 10C12.38.H6.87Y.58I IgG4) VH: EVQLVESGGGLVQPGGSLRLSCAASGFTFSSFSMSWVRQAPGKGLEWVATISGGKTFTDYVDSVKGRFTISRDDSKNTLYLQMNSLRAEDTAVYYCTRANYGNWFFEVWGQGTLVTVSS VL: EIVLTQSPATLSLSPGERATLSCRASESVAKYGLSLLNWFQQKPGQPPRLLIFAASNRGSGIPARFSGSGSGTDFTLTISSLEPEDFAVYYCQQSKEVPFTFGQGTKVEIKR , please.
Resp: 0.000804

Req: Please report the recorded koff for H4H9629P (antibody, IgG4, V domains shown, also called RG4) VH: EVQLVESGGGLVQPGGSLRLSCAASGFTFRSFAMSWVRQAPGKGLELVSDLRTSGGSTYYADSVKGRLTISRDNSKNTLYLQMNSLRAEDTAVYYCAKSHYSTSWFGGFDYWGQGTLVTVSS VL: DIQMTQSPSSVSASVGDRVTITCRASQGFSSWLAWYQQKPGKAPKLLIYAASSLQSGVPSRFSGSGSGTDFTLTITNLQPEDFATYYCQQANSFPLTFGGGTKVEIK .
Resp: 0.000502

Reference for the values: patent US20190092852A1
